ASSAYED TARGET: P2Y6 receptor (Homo sapiens, UniProt Q15077)
Sequence (Q15077 whole entry): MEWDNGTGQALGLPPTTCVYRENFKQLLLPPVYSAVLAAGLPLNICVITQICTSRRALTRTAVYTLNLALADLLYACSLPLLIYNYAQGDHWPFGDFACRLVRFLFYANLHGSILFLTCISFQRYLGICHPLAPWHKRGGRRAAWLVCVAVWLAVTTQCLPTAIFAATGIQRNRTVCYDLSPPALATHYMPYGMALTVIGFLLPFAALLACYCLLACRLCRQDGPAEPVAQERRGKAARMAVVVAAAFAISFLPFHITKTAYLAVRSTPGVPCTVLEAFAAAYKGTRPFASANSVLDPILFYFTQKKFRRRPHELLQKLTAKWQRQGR
METHOD NOTES: Activation of P2Y6 receptor: receptor induced Ca2+ changes with fluo-4 in 1321N1 cells
Type: cell-based
Design: expressed in transfected cells; host or cells: 1321N1 human astrocytoma cells
ASSAY CONTEXT: 1321N1 human astrocytoma cells expressing P2Y6; fluo-4 Ca2+ fluorescence
pEC50: −log10 of the molar value.
METRIC NAME: pEC50

>>> df
                                   compound                            assayed_target  metric_name  measured_result
0  O=c1ccn(C2OC(COP(=O)(O)OP(=O)(O)O)C(O)[C@@H]2O)c(=O)n1Cc1noc2ccccc12 (stereo partly shown)  P2Y6 receptor (Homo sapiens, UniProt Q15077)        pEC50             7.92

====

METHOD NOTES: Cmax after effective dose of compound 5
ASSAY CONTEXT: mouse, in vivo, 10 ug/kg; effective dose of 10 μg/kg
METRIC NAME: Cmax (nM)

>>> print(df.to_string())
                                   molecule  metric_name  measured_result
0  O=c1ccn([C@@H]2O[C@H](CO)C(O)C2O)c(=O)n1Cc1noc2ccccc12 (stereo in doubt) [compound 5]         Cmax               13
